system: OVCAR-5 ovarian; experiment: NCI tumour cell line growth inhibition, 48 h

compound | GI50
COc1ccc(/C=c2\sc3n(c2=O)C2C(NN=3)N(C)C(=O)N2C)cc1 (stereo not drawn) | 2.25 µM
COc1cccc(/C=N/NC(=S)NC2CC3CCC2C3)c1O (stereo not drawn) | 44.9 µM
CCOc1cc(Br)c(C(C)NC(=O)c2cccc(OC)c2)cc1OCC (stereo not drawn) | 25.4 µM
COc1cccc2c1-c1c(c3ccc([N+](=O)[O-])cc3c(=O)n1CCCN)C2=O | 1.88 µM
CCCCCCNC(=O)Oc1ccc(/C(=C(/C)Cc2ccc(OC)cc2)c2ccc(OCCCN(C)C)cc2)cc1 | 15.7 µM
Brc1ccc2[nH]cc(-c3nc(-c4c[nH]c5ncccc45)cs3)c2c1 | 4.49 µM
Cc1cc(Nc2nc(-c3cccnc3)nc3ccccc23)n[nH]1 | 7.77 µM
COc1cccc(-c2nn(-c3ccccc3)cc2-c2ccnc(NCCNC(=O)Nc3cccc(C(F)(F)F)c3)c2)c1 | 1.51 µM
C=C1C(=O)O[C@H]2[C@H]1CC/C(COC(=O)CCSCCC(=O)OC/C1=C/CC[C@@]3(C)O[C@H]3[C@H]3OC(=O)C(=C)[C@@H]3CC1)=C\CC[C@@]1(C)O[C@@H]21 | 2.11 µM
COc1ccc2c(c1)CC[C@@H]1[C@@H]2CC[C@]2(C)[C@@H](NC(=O)/C=C/c3ccc(O)c(O)c3)CC[C@@H]12 | 6.37 µM
COc1cc2c(cc1OC)C(Sc1ccc(SC)cc1)c1c(nc(N)c(C#N)c1N)O2 (stereo not drawn) | 1.87 µM
N[C@@H]1C(=O)N2C(C(=O)OC(c3ccccc3)c3ccccc3)=C(CCl)CS[C@H]12 | 44.5 µM
O=C(O)c1cn(C2CC2)c2cc(N3CCN(C(=O)Nc4nc(-c5ccccc5)cs4)CC3)c(F)cc2c1=O | 2.36 µM
